In this section, each of the sequences is paired with its reported shrunken log2 fold change.
System: Escherichia coli TOP10;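 further: peptides expressed intracellularly from a pBAD plasmid library in pooled LB shake-flask culture, induced with 0.3% L-arabinose, DNA abundance read by NGS, three biological replicates, DESeq2 with apeglm shrinkage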
protocol text: shrunken log2 fold change of peptide-encoding DNA abundance (4.5 h post-induction vs induction); higher = less antimicrobial activity (less host growth inhibition)
condition parameters: time post-induction: 4.5 h; library: site-saturation at positions 5, 18, 19, 20
# respond with the number and nothing more

Some sequences with known shrunken log2 fold change results, for comparison:
seq: RRIRKRPPRLPRPRPRPREAPRP
shrunken log2 fold change: 1.44

seq: RRIRFRPPRLPRPRPRPVMQPRP
shrunken log2 fold change: -0.0242

Let us examine a further case.
# lookup: shrunken log2 fold change of RRIRCRPPRLPRPRPRPYRSPRP
0.00395
